test_target: T1, basiliximab fab
T1 construct: The assay used a Fab of basiliximab; Chimeric antibody: human IgG1 constant, mouse variable domains
T1 sequence (VH, as listed by the source limits assumed, chain 1 of 2): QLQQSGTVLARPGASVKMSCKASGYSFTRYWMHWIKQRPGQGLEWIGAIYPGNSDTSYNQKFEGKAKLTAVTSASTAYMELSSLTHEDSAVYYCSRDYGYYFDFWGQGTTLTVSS
T1 sequence (VL, as listed by the source limits assumed, chain 2 of 2): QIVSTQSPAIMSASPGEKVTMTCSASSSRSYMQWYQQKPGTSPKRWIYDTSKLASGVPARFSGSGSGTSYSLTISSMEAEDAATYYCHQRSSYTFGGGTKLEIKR
assay_info: BLI; CD25-Fc on anti-hFc biosensor, basiliximab Fab in solution; global 1:1 fit;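 note: biolayer interferometry signals normalized against a reference probe and smoothed with a Savitzky-Golay filter before the global fit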
Parameter threshold = 200000 M⁻¹ s⁻¹. Response is Met when kon meets or exceeds it, else Not met.

Query: Given CD25 T47N mutant (CD25-Fc) (Fc fusion, not shown: Fc part of CD25-Fc) ELCDDDPPEIPHATFKAMAYKEGTMLNCECKRGFRRIKSGSLYMLCNGNSSHSSWDNQCQCTSSATRNTTKQVTPQPEEQKERKTTEMQSPMQPVDQASLPGHCREPPPWENEATERIYHFVVGQMVYYQCVQGYRALHRGPAESVCKMTHGKTRWTQPQLICTGEMETSQFPGEEKPQASPEGRPESETSCLVTTTDFQIQTEMAATMETSIFTTEYQ , state whether its kon is at least 200000 M⁻¹ s⁻¹.
Result: Met

Query: Given CD25 S41D mutant (CD25-Fc) (Fc fusion, not shown: Fc part of CD25-Fc) ELCDDDPPEIPHATFKAMAYKEGTMLNCECKRGFRRIKSGDLYMLCTGNSSHSSWDNQCQCTSSATRNTTKQVTPQPEEQKERKTTEMQSPMQPVDQASLPGHCREPPPWENEATERIYHFVVGQMVYYQCVQGYRALHRGPAESVCKMTHGKTRWTQPQLICTGEMETSQFPGEEKPQASPEGRPESETSCLVTTTDFQIQTEMAATMETSIFTTEYQ , state whether its kon is at least 200000 M⁻¹ s⁻¹.
Result: Met

Query: Given CD25 L42A mutant (CD25-Fc) (Fc fusion, not shown: Fc part of CD25-Fc) ELCDDDPPEIPHATFKAMAYKEGTMLNCECKRGFRRIKSGSAYMLCTGNSSHSSWDNQCQCTSSATRNTTKQVTPQPEEQKERKTTEMQSPMQPVDQASLPGHCREPPPWENEATERIYHFVVGQMVYYQCVQGYRALHRGPAESVCKMTHGKTRWTQPQLICTGEMETSQFPGEEKPQASPEGRPESETSCLVTTTDFQIQTEMAATMETSIFTTEYQ , state whether its kon is at least 200000 M⁻¹ s⁻¹.
Result: Not met

Query: Given CD25 Y43R mutant (CD25-Fc) (Fc fusion, not shown: Fc part of CD25-Fc) ELCDDDPPEIPHATFKAMAYKEGTMLNCECKRGFRRIKSGSLRMLCTGNSSHSSWDNQCQCTSSATRNTTKQVTPQPEEQKERKTTEMQSPMQPVDQASLPGHCREPPPWENEATERIYHFVVGQMVYYQCVQGYRALHRGPAESVCKMTHGKTRWTQPQLICTGEMETSQFPGEEKPQASPEGRPESETSCLVTTTDFQIQTEMAATMETSIFTTEYQ , state whether its kon is at least 200000 M⁻¹ s⁻¹.
Result: Met

Query: Given CD25 L42F mutant (CD25-Fc) (Fc fusion, not shown: Fc part of CD25-Fc) ELCDDDPPEIPHATFKAMAYKEGTMLNCECKRGFRRIKSGSFYMLCTGNSSHSSWDNQCQCTSSATRNTTKQVTPQPEEQKERKTTEMQSPMQPVDQASLPGHCREPPPWENEATERIYHFVVGQMVYYQCVQGYRALHRGPAESVCKMTHGKTRWTQPQLICTGEMETSQFPGEEKPQASPEGRPESETSCLVTTTDFQIQTEMAATMETSIFTTEYQ , state whether its kon is at least 200000 M⁻¹ s⁻¹.
Result: Not met

Query: Given CD25 L2F mutant (CD25-Fc) (Fc fusion, not shown: Fc part of CD25-Fc) EFCDDDPPEIPHATFKAMAYKEGTMLNCECKRGFRRIKSGSLYMLCTGNSSHSSWDNQCQCTSSATRNTTKQVTPQPEEQKERKTTEMQSPMQPVDQASLPGHCREPPPWENEATERIYHFVVGQMVYYQCVQGYRALHRGPAESVCKMTHGKTRWTQPQLICTGEMETSQFPGEEKPQASPEGRPESETSCLVTTTDFQIQTEMAATMETSIFTTEYQ , state whether its kon is at least 200000 M⁻¹ s⁻¹.
Result: Met

Query: Given CD25 S41N mutant (CD25-Fc) (Fc fusion, not shown: Fc part of CD25-Fc) ELCDDDPPEIPHATFKAMAYKEGTMLNCECKRGFRRIKSGNLYMLCTGNSSHSSWDNQCQCTSSATRNTTKQVTPQPEEQKERKTTEMQSPMQPVDQASLPGHCREPPPWENEATERIYHFVVGQMVYYQCVQGYRALHRGPAESVCKMTHGKTRWTQPQLICTGEMETSQFPGEEKPQASPEGRPESETSCLVTTTDFQIQTEMAATMETSIFTTEYQ , state whether its kon is at least 200000 M⁻¹ s⁻¹.
Result: Met

Query: Given CD25 L42I mutant (CD25-Fc) (Fc fusion, not shown: Fc part of CD25-Fc) ELCDDDPPEIPHATFKAMAYKEGTMLNCECKRGFRRIKSGSIYMLCTGNSSHSSWDNQCQCTSSATRNTTKQVTPQPEEQKERKTTEMQSPMQPVDQASLPGHCREPPPWENEATERIYHFVVGQMVYYQCVQGYRALHRGPAESVCKMTHGKTRWTQPQLICTGEMETSQFPGEEKPQASPEGRPESETSCLVTTTDFQIQTEMAATMETSIFTTEYQ , state whether its kon is at least 200000 M⁻¹ s⁻¹.
Result: Met
